Readings of logKiCB2 (nM) Exp. for the listed molecules
- Measured target: human CB2 receptor (Homo sapiens, UniProt P34972)
- Sequence (P34972 whole entry): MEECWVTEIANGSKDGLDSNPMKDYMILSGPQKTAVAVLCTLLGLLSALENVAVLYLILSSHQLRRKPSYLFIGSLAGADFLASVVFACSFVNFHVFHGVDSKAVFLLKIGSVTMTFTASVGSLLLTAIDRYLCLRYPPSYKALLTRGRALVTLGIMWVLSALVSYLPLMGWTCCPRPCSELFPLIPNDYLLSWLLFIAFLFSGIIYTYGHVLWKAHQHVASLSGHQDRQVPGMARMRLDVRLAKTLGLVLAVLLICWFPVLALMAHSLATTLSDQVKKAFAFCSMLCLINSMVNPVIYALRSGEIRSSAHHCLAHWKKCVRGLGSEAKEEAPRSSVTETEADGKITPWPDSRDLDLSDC
- Protocol description: Competition binding assay, displacement of [3H]-CP-55,940, CB2R
- Parameters: unit not given here
- Condition description: log of experimental Ki

| Smiles input | Measured target | logKiCB2 (nM) Exp. |
| --- | --- | --- |
| CCCCn1c(=O)c(C(=O)NC23CC4CC(CC(C4)C2)C3)c(O)c2c1c(C)nn2C | human CB2 receptor (Homo sapiens, UniProt P34972) | 1.55 |
| CCCCn1c(=O)c(C(=O)NC(c2ccccc2)c2ccccc2)c(O)c2nn(C)cc21 | human CB2 receptor (Homo sapiens, UniProt P34972) | 2.15 |
| C#CCn1ncc2c1c(O)c(C(=O)NC13CC4CC(CC(C4)C1)C3)c(=O)n2C(C)C | human CB2 receptor (Homo sapiens, UniProt P34972) | 1.79 |
| CCn1cc2c(n1)c(O)c(C(=O)NC13CC4CC(CC(C4)C1)C3)c(=O)n2CC | human CB2 receptor (Homo sapiens, UniProt P34972) | 1.38 |
